System: MS2 coat protein
Experiment: apparent KD of MS2 coat protein, switch ON state; designed switch direction (-1 OFF switch, 1 ON switch): -1; higher = weaker reporter binding
Settings: FMN input: 0 or 200 uM; Eterna round: R93 (includes R88 designs)
# apparent KD of MS2 coat protein listing for each entry below

Macromolecule sequence	Units	apparent KD of MS2 coat protein
AACAGUACAGGAUAUACAUGAGGAUCACCCAUGUCACACAAAUAAAACAAAAAUAAAAGUAGAAGGGUACUGGA [Ruby 40]	nM	24.9
GAAAAACAUGAGGAUCACCCAUGUAAGGAUAUGCUAAAAAACACGGAAAAACGUGAUAGCAGAAGGUACAAAAA [Mat - Exclusion 1 - Eli mod - D89]	nM	24.1
AGUCUGAGAGGAUAUACAUAGGAAAAAAAAGUCAGAUCCCUACAUGAGGAUCACCCAUGUAGAAGGCUCUGACA [Ex2 Design 148: Sub-opt 12]	nM	13.9
AUCUUGUCAGGAUAUCGUAUAAUAUGGAAAACAUAGAGAUACGAGAAGGGACAUGAGGAUCACCCAUGUAAAAC [May 97]	nM	41.7
AGUUGGCGAGGAUAUACAUGAGGAUCACCCAUGUGAAAUAAUGAAAAAGUAGGGAAAAGUAGAAGGCGCUGACA [73%, Moding Norbert Elias, 20]	nM	37.7
AACUAGUGAGGAUAUACAAGAAUAUAAACAAAAAUGAAGGGACAUGAGGAUCACCCAUGUAGAAGGCACUAACA [Diamond 71]	nM	34

###

Tested on: K4 kissing-loop RNA reporter
Assay: apparent KD of K4 kissing-loop reporter; higher = weaker reporter binding
Settings: Eterna round: R107; input ligand: arginine 13.2 mM
Hi, to clarify the labels: 1.0 covers apparent KD of K4 kissing-loop reporter from 200 nM upward, 0.0 covers anything below 200 nM.

Macromolecule sequence	Tested system	Assigned category
CAAGGGCAAGUCGAUACCAGAGACACAUACCCGCAGUGAUGUUGCAGGAAACAGUUACUUCUCCCUUGGCAGCGAAUGCGACUUC [theeternabot_sameState_KL_Theo_B_45]	K4 kissing-loop RNA reporter	1.0
AUACGUUUUUGUGAUACCAGACAUGUGAGUGAUGUUUACAUAUAUAUUUAAUAUUUAGCUGUCCCUUGGCAGCACUGUUUAUUUA [JR_ExcTheophyB_Sub004]	K4 kissing-loop RNA reporter	1.0
UGAUAGGACAGAAGGAGCGGUAGUGAUGUUACCAAAAGAAUAAGGUGUCAAAAGACACCCUACCAGGUAGGUCGCUGUCCUAUCU	K4 kissing-loop RNA reporter	1.0
UGGACGAUAUACGAUAAGUAUAUCUGGGAUACCAGUGACGAAAGUCACCCUUGGCAGCUCAACUGCCAGUGAUGUUGGUAGUCCA [#17 K4 Theophylline A Same State]	K4 kissing-loop RNA reporter	0.0
GCUCAGGAGUGAUGUUCCAAGUGAUGUUAACGAGGACCGGUACGGCCGCCACUCGAUACGGCCGGACCGUAAGAUAAACUAGAGC [Same State - Tryptophan A (Freestyle 8)]	K4 kissing-loop RNA reporter	1.0
UGUCGUUCUAGUGAUGUUAGGACAGUUAUGAAGGAUAUACACACUCGUAGAAGGUCAGCUGCGGAAUGGCGAUUACGGUGAUUCG [theeternabot_sameState_KL_FMN_A_39]	K4 kissing-loop RNA reporter	0.0
GGGAGUGAUGUUCCCACGUUGUCGGUCCUUCGAGGACCGGUACGGCCGCCACUCGCGACCCAGUGAUGUUGGGAUUCACCGUACC [Exclusion Tryptophan A Gf 13]	K4 kissing-loop RNA reporter	1.0
GGAGGAGAGGGAAGGAGCGUGAAAGAGAAAGAAUAUAGUGAUGUUAUAUAGAAGAAAGAAUCACAGGUAGGUCGCCCGGAGGAGG [SSArgB.A]	K4 kissing-loop RNA reporter	1.0
GUACCUUGGAAACAAGGACAGCUCACCGAAGGAGCGCGUGAAAACGCAGGUAGGUCGCGGUAGCGGAGUGAUGUUCCGCGAGGGC [Same State Arginine A GF 20]	K4 kissing-loop RNA reporter	0.0
UGGCGGCAAGGGUUAUUGGAAAGUAUUCGACGAGGACCGGUACGGCCGCCACUCGAACACCAGUGAUGUUGGUCUGGCUUAAGCC [Exclusion Tryptophan A GF 21]	K4 kissing-loop RNA reporter	1.0
UUAACCAACAGCGAUACCAGCGUGGAGUGAUGUUCCGAGGAUCGGAGUGAUGUUCCGAAGCGCCCUUGGCAGCGCAGAAGCGCCA [Exclusion Theophylline B GF9]	K4 kissing-loop RNA reporter	0.0

###

# apparent KD of K4 kissing-loop reporter listing for each entry below
System: K4 kissing-loop RNA reporter;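 note: bound reporter read as fluorescence of individual clusters on recovered sequencing chips by microscopy, with normalized cluster intensities fitted with a binding model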
Test: apparent KD of K4 kissing-loop reporter; higher = weaker reporter binding
Conditions: Eterna round: R107; input ligand: none
Measured endpoint: apparent KD of K4 kissing-loop reporter

Macromolecule sequence	Observed result
CUUGUACAAGUGAUGUUUGUUAUAUCCGAAGGAGCGUCGUACUAGACAGGUAGGUCGCGGAUGAAGAUAGUUUUUUUAAUAUCAU [JR_Nu_SSArginiA_Sub028]	761 nM
GUAUCGCUAGGAGGAUAUUUCAAAUAAUAAAUAAAUGGUUAUACGGAGUGAUGUUCCGAUUUACGGAAAGAAGGCCUAGUGAUAC [FMN B 3]	155 nM
ACCCUACUCGGGCGGCUAUACAGUUAAGCUAAGGAUAUGUAUUCGUACAGAAGGUAGAAGAAGCCGAGUGAUGUUCGACACGCCC [theeternabot_sameState_KL_FMN_A_24]	544 nM

###

System: MS2 coat protein
Assay: apparent KD of MS2 coat protein; designed switch direction (-1 OFF switch, 1 ON switch): 1; higher = weaker reporter binding
Conditions: input ligand: FMN 200 uM
# apparent KD of MS2 coat protein listing for each entry below

Macromolecule sequence	Units	apparent KD of MS2 coat protein
GGCAGGUGCAGGCUUGCUUGCACCUGGAAACAUGAGGAUCACCCAUGUUUGGGACAAGCUUUGCUCCUCGUCUUGUC [JL ViennaUCT Isusreraar mod 2] (Eterna round: R96, puzzle: Sensor for hsa-mir-208a)	nM	38.4
UUACUCAUGUAAGGAUAUGCAGCCGUUUCGGCUGCAGAAGGUACUAUAAUACAUGAGGAUCACCCAUGUCUCUAUUAUUUGGUG [salish99_SSNG1_r04_923] (Eterna round: R96, puzzle: Same State NG 1)	nM	111
UAUUAAGCUGUAGGAUAUCUAGGAUAUGGACGAGGAUCACCCGAGCAGCAUCAGCGCACCAGAGGAGAGAAGGACGCUUUGGAA [pwkr ssNG2 2F5 2FMN.3] (Eterna round: R96, puzzle: Same State NG 2)	nM	463
GUACAUAUCAGAGGAUAUCACGUCGUUUAGACGUGAGAAGGCUGAUCACACAUGAAUAUUAAUACAUGAGGAUCACCCAUGUAC [SSNG1/13-A3] (Eterna round: R96, puzzle: Same State NG 1)	nM	23.8

###

System: MS2 coat protein
Assay: apparent KD of MS2 coat protein; designed switch direction (-1 OFF switch, 1 ON switch): -1; higher = weaker reporter binding
Conditions: Eterna round: R95; input ligand: microRNA oligo, concentration not stated

Macromolecule sequence	apparent KD of MS2 coat protein [nM]
GGCGACCUAGGAUAUACAUGAGGAUCACCCAUGUUUAUCUAAUAGAUGAAGACGGGUUGUAGAAGGAGGAAAAU [Geriin] (puzzle: Exclusion 3)	13.1
AAUAACAGAGGAUAUACUAUUUUAUGUGUUUGUUAUUUUGAACAUGAGGAUCACCCAUGUAGAAGGCUGAUUGA [JMF 77] (puzzle: Exclusion 2)	41.1
CUUUUGUGAGGAUAUUAGUAGUAAAAAAAUAAAAUUACUACUGAGAAGGCACAUGAGGAUCACCCAUGUUCCUU [salish99_ex4_r3_039] (puzzle: Exclusion 4)	14.1
AGAAAUGCCCAUGGCCGCAAGCUUUCUGCUUGUCUUACCACAUGAGGAUCACCCAUGUGACAUGGGCUCCUUAUAAU [Soralaer] (puzzle: Sensor v3, turn-off variant 2)	11
GGAAGAAUGAGUAGUCCUCAUUGAAGAGAAUAGUAAGAAACAUGAGGAUCACCCAUGUAAGAACAAGCUUUUGCUCA [JR_Sv3TOV2_Sub003] (puzzle: Sensor v3, turn-off variant 2)	85

###

Test system: MS2 coat protein
Experiment: apparent KD of MS2 coat protein; designed switch direction (-1 OFF switch, 1 ON switch): -1; higher = weaker reporter binding
Conditions: input ligand: microRNA oligo, concentration not stated
# apparent KD of MS2 coat protein listing for each entry below

Macromolecule sequence	apparent KD of MS2 coat protein [nM]
CGGCAUGUCUGAGGAUAUCUGCACGUUUAGUGCAGAGAAGGCAGAACAUGAGGAUCACCCAUGUAGAUCAUUAACCGAUUAAUU [ENG1/7-A2] (Eterna round: R96, puzzle: Exclusion NG 1)	182
GUCGUGCGGCUUUGCUGUACGAGUACAUGAGGAUCACCCAUGUAGGAUAUGGCACGCUUUGCGUGCCAGAAGGGCGUGCGUUGG [Excl-NG3-LRO10] (Eterna round: R96, puzzle: Exclusion NG 3)	21.5
CUCCGGCGUGUAGGAUAUGGUUCCGAUUAGGAUCCAGAAGGACAUGAGGAUCACCCAUGUACAUGUCGUCGGUCGUCACCGGGC [salish99_ExNG1_r04_211] (Eterna round: R96, puzzle: Exclusion NG 1)	24.1
CUGUUUUUCGCAGGAUAUGCUUCUCCUUUAUUAGCAGAAGGGCGUUAAACAUGAGGAUCACCCAUGUAUGGUAAUGAUAUUUUC [JR_ExcNG1_Sub060] (Eterna round: R96, puzzle: Exclusion NG 1)	52.3
UUUUUAUAUGAAGGAUAUACUUAACAUGAGGAUCACCCAUGUGGUGUUGUGAGUGAGUGAGUUUAGUAGAAGGUCAAGUAUUUG [JMF's solution 42] (Eterna round: R96, puzzle: Exclusion NG 2)	204
